Target: CYP3A4 (Homo sapiens, UniProt P08684)
Sequence (P08684 whole entry): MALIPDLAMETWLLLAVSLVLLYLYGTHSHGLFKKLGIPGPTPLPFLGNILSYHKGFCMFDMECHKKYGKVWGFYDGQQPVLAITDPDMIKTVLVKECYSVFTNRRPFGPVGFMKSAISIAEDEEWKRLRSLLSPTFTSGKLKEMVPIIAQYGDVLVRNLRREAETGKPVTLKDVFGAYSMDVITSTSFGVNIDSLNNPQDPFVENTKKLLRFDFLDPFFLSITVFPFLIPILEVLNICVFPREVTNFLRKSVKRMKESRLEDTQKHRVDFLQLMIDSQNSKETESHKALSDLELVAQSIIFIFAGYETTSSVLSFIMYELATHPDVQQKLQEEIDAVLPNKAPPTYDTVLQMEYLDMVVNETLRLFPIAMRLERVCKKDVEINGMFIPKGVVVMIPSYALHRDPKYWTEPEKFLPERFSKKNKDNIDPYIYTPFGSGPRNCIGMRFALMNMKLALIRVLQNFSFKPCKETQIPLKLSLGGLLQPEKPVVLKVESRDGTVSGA
Assay: Biological Test Example 6: CYP3A4 Inhibition ([N-methyl-14C]-Erythromycin N-demethylation)
Type: in vitro ADME
Details: recombinant CYP3A4, probe [N-methyl-14C]-Erythromycin (50 μM)
pIC50: −log10 of the molar value.
value kind: pIC50

Form entry - test system: CYP3A4 (Homo sapiens, UniProt P08684); read-out: pIC50; compound: COC(C)(C)Cn1ccc(-c2ccc([C@H](C)N3CC[C@](CC(C)(C)O)(c4ccccc4)OC3=O)cc2)cc1=O [Example 83] < 4.30

---

Target: 11β-HSD1 (Homo sapiens, UniProt P28845)
Construct: detecting cortisol generated from cortisterone by human liver microsomes
Sequence (P28845 whole entry): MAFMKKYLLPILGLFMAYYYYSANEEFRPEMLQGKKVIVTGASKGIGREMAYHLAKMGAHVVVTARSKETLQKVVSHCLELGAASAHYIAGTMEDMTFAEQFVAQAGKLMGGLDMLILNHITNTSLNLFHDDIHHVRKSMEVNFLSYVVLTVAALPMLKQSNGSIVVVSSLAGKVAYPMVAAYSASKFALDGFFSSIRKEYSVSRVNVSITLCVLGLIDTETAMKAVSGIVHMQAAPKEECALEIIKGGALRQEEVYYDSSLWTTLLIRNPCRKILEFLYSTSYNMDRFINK
Test: biochemical
Settings: read-out: Average % control inhibition at 100 nM
Everything with percent inhibition at 0.1 µM lower than 20% is not fulfilled; everything else, including exactly 20%, is fulfilled.

percent inhibition at 0.1 µM >= 20% for C[C@@H](c1ccc(-c2ccn(CC(C)(C)O)c(=O)c2)cc1)N1CC[C@](CC(C)(C)O)(c2ccccc2)OC1=O ? fulfilled

percent inhibition at 0.1 µM >= 20% for COCC(C)Cn1ccc(-c2ccc([C@H](C)N3CC[C@](CC(C)(C)O)(c4ccccc4)OC3=O)cc2)cc1=O (stereo partly drawn) ? not fulfilled

percent inhibition at 0.1 µM >= 20% for C[C@@H](c1ccc(-c2cc(=O)n(C)cc2F)cc1)N1CC[C@](CC(C)(C)O)(c2ccccc2)OC1=O ? not fulfilled

percent inhibition at 0.1 µM >= 20% for C[C@@H](c1ccc(-c2ccn(CC(C)(C)CO)c(=O)c2)cc1)N1CC[C@](CC(C)(C)O)(c2ccccc2)OC1=O ? not fulfilled

percent inhibition at 0.1 µM >= 20% for COC(C)(C)Cn1ccc(-c2ccc([C@H](C)N3CC[C@](CC(C)(C)O)(c4ccccc4)OC3=O)cc2)cc1=O ? fulfilled

percent inhibition at 0.1 µM >= 20% for CC(CO)Cn1ccc(-c2ccc([C@H](C)N3CC[C@](CC(C)(C)O)(c4ccccc4)OC3=O)cc2)cc1=O (stereo partly drawn) ? not fulfilled
